Data provenance: patent US20130225488A1

- system: Human glucagon receptor (human, UniProt P47871 26-477)
- protocol_details: cell-based or functional assay
Where no end group is shown, it is not given here. [ ]: non-standard residue; d: D form. Ac3c = NC1(C(=O)O)CC1
experimental_readout: cAMP production with saturated glucagon peptide; test compound 1 nM (pmol/ml/µg prt)

(Q) Value lookup for cAMP production with saturated glucagon peptide; test compound 1 nM; key = H[Ac3c]QGTFTSD[Bip(OMe)][Bip(2F)] [Seq. ID. No. 19: H-(ACP)-QGTFTSD-Bip(OMe)-Bip(2F)]
(A) 5

(Q) What measured cAMP production with saturated glucagon peptide; test compound 1 nM goes with HAQGTFTSD[Bip(OMe)][Bip(2CF3)] [Seq. ID. No. 12: HAQGTFTSD-Bip(OMe)-Bip(2CF3)] ?
(A) 5

(Q) # lookup: cAMP production with saturated glucagon peptide; test compound 1 nM of HXQGTXTSDXX (not fully specified; ACP at 2; α-Me-2F-Phe at 6; Bip(OMe) at 10; Bip(2F) at 11) [Seq. ID. No. 35: H-(ACP)-QGT-(α-Me-2F-Phe)-TSD-Bip(OMe)-Bip(2F)]
(A) 5
